target: MBD2 MBD R188A (Homo sapiens, UniProt Q9UBB5 143-220, R188A); assay: ITC
Sequence (Q9UBB5 143-220 R188A): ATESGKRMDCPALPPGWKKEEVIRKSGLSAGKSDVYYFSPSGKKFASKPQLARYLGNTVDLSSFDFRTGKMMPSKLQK
pKd: −log10 of the molar value.
measure: pKd

[
  {
    "binder": "GmCGC (dsDNA, 5mC at position 6 of both strands) DNA 1: GCCAGCGCTGGC DNA 2: GCCAGCGCTGGC",
    "recorded value": 5.25
  }
]

Each recorded value in this set is attributed to paper doi:10.1101/338061.
